Experimental Target: recombinant human CK2 (Homo sapiens (Human))
Sequence (P68400 whole entry): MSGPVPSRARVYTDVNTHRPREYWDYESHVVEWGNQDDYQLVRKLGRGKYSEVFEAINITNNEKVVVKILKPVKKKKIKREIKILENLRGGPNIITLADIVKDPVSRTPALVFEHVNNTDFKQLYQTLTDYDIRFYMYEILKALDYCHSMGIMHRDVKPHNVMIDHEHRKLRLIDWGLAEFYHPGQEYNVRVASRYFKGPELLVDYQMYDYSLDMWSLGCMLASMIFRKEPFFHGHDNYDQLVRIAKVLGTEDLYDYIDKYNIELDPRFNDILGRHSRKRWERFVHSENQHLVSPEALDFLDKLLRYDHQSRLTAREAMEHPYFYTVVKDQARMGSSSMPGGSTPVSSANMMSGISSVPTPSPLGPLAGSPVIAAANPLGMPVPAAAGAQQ
Sequence (P67870 whole entry partner): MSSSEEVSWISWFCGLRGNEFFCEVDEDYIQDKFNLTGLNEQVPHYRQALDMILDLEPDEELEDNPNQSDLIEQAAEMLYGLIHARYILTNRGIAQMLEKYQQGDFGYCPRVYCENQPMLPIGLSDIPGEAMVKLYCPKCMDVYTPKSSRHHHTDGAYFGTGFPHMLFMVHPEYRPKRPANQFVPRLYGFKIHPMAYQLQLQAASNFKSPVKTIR
Measurement Description: CK2 assay (cell-free, 33P-ATP filter plate)
Format: biochemical
Condition Set: 500 nM compound, cell-free; read-out: CK2: % inh 500 nM
Values of inhibition at 0.5 µM greater than or equal to 50% map to MET; values below map to NOT MET.

For this compound, is measured inhibition at 0.5 µM 50% or higher? O=C(O)c1ccc2c(c1)nc(Nc1cccc(Cl)c1)c1ccncc12 [drawing 1512]
MET

For this compound, is measured inhibition at 0.5 µM 50% or higher? "COC(=O)c1ccc2c(c1)nc(Nc1cccc(CC(=O)O)c1)c1ccsc12"
NOT MET

Is reported inhibition at 0.5 µM greater than or equal to 50% here: "CN(C)C(=O)c1cccc(Nc2nc3cc(C(=O)O)ccc3c3sccc23)c1"
NOT MET

Is reported inhibition at 0.5 µM greater than or equal to 50% here: "O=C(O)c1ccc2c(c1)nc(Nc1cccc(C(=O)Nc3nccs3)c1)c1ccsc12"
MET
